Cited source: ChEMBL document CHEMBL3046568

inhibition zone (IZ) listing for selected compounds.
Tested on: Penicillium chrysogenum
experimental.protocol: Antifungal activity against Penicillium chrysogenum after 3 to 4 days by serial dilution method
Assay type: functional
measurement.type: inhibition zone (IZ) (mm)

> print(dat)
                                smiles.data              test.system      measurement.type  measured.result
1       O=c1cc(COc2cccc(O)c2)c2cc(Cl)ccc2o1  Penicillium chrysogenum  inhibition zone (IZ)               22
2  CC(=O)Nc1cccc(OCc2cc(=O)oc3cc(C)ccc23)c1  Penicillium chrysogenum  inhibition zone (IZ)               18
3  O=c1cc(COc2cccc(OCc3cc(=O)oc4ccc(Br)cc34)c2)c2cc(Br)ccc2o1  Penicillium chrysogenum  inhibition zone (IZ)               18
4  CC(=O)Nc1cccc(OCc2cc(=O)oc3ccc4ccccc4c23)c1  Penicillium chrysogenum  inhibition zone (IZ)               18
5  Cc1ccc2oc(=O)cc(COc3cccc(OCc4cc(=O)oc5ccc(C)cc45)c3)c2c1  Penicillium chrysogenum  inhibition zone (IZ)               16

====

Test system: Staphylococcus aureus
experimental.protocol: Induction of Staphylococcus aureus MTCC 3160 DNA cleavage at 50 ug after 2 hr by agarose gel electrophoresis
Calls of active or inactive are those of the source. The rule behind the calls is not given here.
Possible outcomes: active, inactive

> print(dat)
                                 smiles.data            test.system  category
 1  Cc1ccc2oc(=O)cc(COc3cccc(OCc4cc(=O)oc5ccc(C)cc45)c3)c2c1  Staphylococcus aureus  inactive
 2       COc1ccc2oc(=O)cc(COc3cccc(O)c3)c2c1  Staphylococcus aureus    active
 3  COc1ccc2oc(=O)cc(COc3cccc(OCc4cc(=O)oc5ccc(OC)cc45)c3)c2c1  Staphylococcus aureus    active
 4       O=c1cc(COc2cccc(O)c2)c2cc(Cl)ccc2o1  Staphylococcus aureus    active
 5  CCN(CC)c1cccc(OCc2cc(=O)oc3ccc4ccccc4c23)c1  Staphylococcus aureus  inactive
 6  CC(=O)Nc1cccc(OCc2cc(=O)oc3ccc(C)cc23)c1  Staphylococcus aureus  inactive
 7  CC(=O)Nc1cccc(OCc2cc(=O)oc3ccc(Br)cc23)c1  Staphylococcus aureus    active
 8  CCN(CC)c1cccc(OCc2cc(=O)oc3ccc(Cl)cc23)c1  Staphylococcus aureus    active
 9  CC(=O)Nc1cccc(OCc2cc(=O)oc3ccc4ccccc4c23)c1  Staphylococcus aureus  inactive
10  CCN(CC)c1cccc(OCc2cc(=O)oc3cc(C)ccc23)c1  Staphylococcus aureus  inactive
11  CC(=O)Nc1cccc(OCc2cc(=O)oc3ccc(Cl)cc23)c1  Staphylococcus aureus    active
12  CC(=O)Nc1cccc(OCc2cc(=O)oc3cc(C)ccc23)c1  Staphylococcus aureus  inactive

====

System: Escherichia coli
experimental.protocol: Induction of Escherichia coli MTCC 1089 DNA cleavage at 50 ug after 2 hr by agarose gel electrophoresis
Activity calls are given as the source filed them. The rule behind the calls is not given here.
Possible outcomes: Y (active), N (inactive)

> print(dat)
                                smiles.data       test.system  category
1  CC(=O)Nc1cccc(OCc2cc(=O)oc3ccc(Cl)cc23)c1  Escherichia coli         Y
2       COc1ccc2oc(=O)cc(COc3cccc(O)c3)c2c1  Escherichia coli         Y
3  CCN(CC)c1cccc(OCc2cc(=O)oc3ccc(Cl)cc23)c1  Escherichia coli         Y
4  CC(=O)Nc1cccc(OCc2cc(=O)oc3ccc4ccccc4c23)c1  Escherichia coli         N
5  CC(=O)Nc1cccc(OCc2cc(=O)oc3cc(C)ccc23)c1  Escherichia coli         N
6  CC(=O)Nc1cccc(OCc2cc(=O)oc3ccc(Br)cc23)c1  Escherichia coli         Y
7  Cc1ccc2oc(=O)cc(COc3cccc(OCc4cc(=O)oc5ccc(C)cc45)c3)c2c1  Escherichia coli         N
8  CCN(CC)c1cccc(OCc2cc(=O)oc3ccc(OC)cc23)c1  Escherichia coli         Y

====

Test system: Escherichia coli
experimental.protocol: Antibacterial activity against Escherichia coli MTCC 1089 after 24 hr by disk diffusion method
Type: functional
test.parameters: Escherichia coli, MTCC 1089, 24 h
measurement.type: MIC

> print(dat)
                                 smiles.data       test.system  measured.result
 1  Cc1ccc2c(COc3cccc(OCc4cc(=O)oc5cc(C)ccc45)c3)cc(=O)oc2c1  Escherichia coli      > 100 µg/mL
 2  O=c1cc(COc2cccc(OCc3cc(=O)oc4c3ccc3ccccc34)c2)c2ccc3ccccc3c2o1  Escherichia coli         25 µg/mL
 3  CC(=O)Nc1cccc(OCc2cc(=O)oc3ccc(Br)cc23)c1  Escherichia coli       12.5 µg/mL
 4       O=c1cc(COc2cccc(O)c2)c2cc(Br)ccc2o1  Escherichia coli       12.5 µg/mL
 5       COc1ccc2oc(=O)cc(COc3cccc(O)c3)c2c1  Escherichia coli       12.5 µg/mL
 6  CCN(CC)c1cccc(OCc2cc(=O)oc3ccc(OC)cc23)c1  Escherichia coli       12.5 µg/mL
 7  COc1ccc2oc(=O)cc(COc3cccc(NC(C)=O)c3)c2c1  Escherichia coli       12.5 µg/mL
 8     O=c1cc(COc2cccc(O)c2)c2ccc3ccccc3c2o1  Escherichia coli         25 µg/mL
 9  CC(=O)Nc1cccc(OCc2cc(=O)oc3ccc(Cl)cc23)c1  Escherichia coli       12.5 µg/mL
10  CCN(CC)c1cccc(OCc2cc(=O)oc3cc(C)ccc23)c1  Escherichia coli         50 µg/mL
11        Cc1ccc2oc(=O)cc(COc3cccc(O)c3)c2c1  Escherichia coli         50 µg/mL
12  Cc1ccc2oc(=O)cc(COc3cccc(OCc4cc(=O)oc5ccc(C)cc45)c3)c2c1  Escherichia coli      > 100 µg/mL

====

System: Escherichia coli
experimental.protocol: Induction of Escherichia coli MTCC 1089 DNA cleavage at 50 ug after 2 hr by agarose gel electrophoresis
Activity calls are given as the source filed them. The calls are words filed in the database; no cut-off is given here.
Possible outcomes: active, inactive

> print(dat)
                                smiles.data  category
1  O=c1cc(COc2cccc(OCc3cc(=O)oc4ccc(Cl)cc34)c2)c2cc(Cl)ccc2o1    active
2     O=c1cc(COc2cccc(O)c2)c2ccc3ccccc3c2o1  inactive
3  CC(=O)Nc1cccc(OCc2cc(=O)oc3c2ccc2ccccc23)c1  inactive
4  O=c1cc(COc2cccc(OCc3cc(=O)oc4c3ccc3ccccc34)c2)c2ccc3ccccc3c2o1  inactive
5  COc1ccc2oc(=O)cc(COc3cccc(OCc4cc(=O)oc5ccc(OC)cc45)c3)c2c1    active
6  CCN(CC)c1cccc(OCc2cc(=O)oc3ccc(C)cc23)c1  inactive

====

MIC listing for selected molecules.
System: Aspergillus fumigatus
experimental.protocol: Antifungal activity against Aspergillus fumigatus after 3 to 4 days by serial dilution method
Assay type: functional
test.parameters: Aspergillus fumigatus
measurement.type: MIC (µg/mL)

> print(dat)
                                 smiles.data            test.system  measurement.type  units  measured.result
 1       O=c1cc(COc2cccc(O)c2)c2cc(Br)ccc2o1  Aspergillus fumigatus               MIC  µg/mL             12.5
 2  CC(=O)Nc1cccc(OCc2cc(=O)oc3ccc4ccccc4c23)c1  Aspergillus fumigatus               MIC  µg/mL             12.5
 3  CCN(CC)c1cccc(OCc2cc(=O)oc3ccc4ccccc4c23)c1  Aspergillus fumigatus               MIC  µg/mL             12.5
 4  CC(=O)Nc1cccc(OCc2cc(=O)oc3cc(C)ccc23)c1  Aspergillus fumigatus               MIC  µg/mL             12.5
 5        Cc1ccc2c(COc3cccc(O)c3)cc(=O)oc2c1  Aspergillus fumigatus               MIC  µg/mL             12.5
 6  CC(=O)Nc1cccc(OCc2cc(=O)oc3ccc(Cl)cc23)c1  Aspergillus fumigatus               MIC  µg/mL             6.25
 7  O=c1cc(COc2cccc(OCc3cc(=O)oc4ccc5ccccc5c34)c2)c2c(ccc3ccccc32)o1  Aspergillus fumigatus               MIC  µg/mL             12.5
 8  CC(=O)Nc1cccc(OCc2cc(=O)oc3c2ccc2ccccc23)c1  Aspergillus fumigatus               MIC  µg/mL             12.5
 9  COc1ccc2oc(=O)cc(COc3cccc(OCc4cc(=O)oc5ccc(OC)cc45)c3)c2c1  Aspergillus fumigatus               MIC  µg/mL             12.5
10  CCN(CC)c1cccc(OCc2cc(=O)oc3cc(C)ccc23)c1  Aspergillus fumigatus               MIC  µg/mL             12.5
11        Cc1ccc2oc(=O)cc(COc3cccc(O)c3)c2c1  Aspergillus fumigatus               MIC  µg/mL             12.5
12  COc1ccc2oc(=O)cc(COc3cccc(NC(C)=O)c3)c2c1  Aspergillus fumigatus               MIC  µg/mL             6.25
13  Cc1ccc2oc(=O)cc(COc3cccc(OCc4cc(=O)oc5ccc(C)cc45)c3)c2c1  Aspergillus fumigatus               MIC  µg/mL             12.5
14  CC(=O)Nc1cccc(OCc2cc(=O)oc3ccc(Br)cc23)c1  Aspergillus fumigatus               MIC  µg/mL             6.25
15  CCN(CC)c1cccc(OCc2cc(=O)oc3ccc(C)cc23)c1  Aspergillus fumigatus               MIC  µg/mL             12.5
16  CCN(CC)c1cccc(OCc2cc(=O)oc3ccc(Br)cc23)c1  Aspergillus fumigatus               MIC  µg/mL             6.25
17  CCN(CC)c1cccc(OCc2cc(=O)oc3c2ccc2ccccc23)c1  Aspergillus fumigatus               MIC  µg/mL             12.5
